study system: alpha-glucosidase (Saccharomyces cerevisiae, UniProt P53341)
Sequence (P53341 whole entry): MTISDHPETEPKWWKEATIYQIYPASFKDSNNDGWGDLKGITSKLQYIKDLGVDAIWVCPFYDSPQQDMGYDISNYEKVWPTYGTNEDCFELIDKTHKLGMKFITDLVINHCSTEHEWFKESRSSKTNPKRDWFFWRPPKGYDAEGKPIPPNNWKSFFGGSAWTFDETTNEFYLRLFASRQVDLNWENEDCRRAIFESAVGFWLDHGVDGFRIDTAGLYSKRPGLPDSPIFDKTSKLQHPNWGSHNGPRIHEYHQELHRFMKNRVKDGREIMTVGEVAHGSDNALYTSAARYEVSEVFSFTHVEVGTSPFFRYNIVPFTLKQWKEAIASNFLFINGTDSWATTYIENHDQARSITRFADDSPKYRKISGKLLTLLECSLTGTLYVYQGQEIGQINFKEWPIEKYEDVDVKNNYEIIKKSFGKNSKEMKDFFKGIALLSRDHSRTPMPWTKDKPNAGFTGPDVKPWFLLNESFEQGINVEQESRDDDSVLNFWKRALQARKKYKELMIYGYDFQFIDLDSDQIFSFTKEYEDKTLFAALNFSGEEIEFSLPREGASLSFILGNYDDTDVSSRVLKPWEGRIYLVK
assay comment: enzyme kinetic study (Lineweaver-Burk and secondary plots)
Type: biochemical
experimental setup: Lineweaver-Burk plot
reported metric: inhibition type

O=C(/C=C/c1ccc(O)cc1)NCCc1ccc(O)cc1 [Compound 5, N-trans-coumaroyltyramine] ... Uncompetitive
COc1cc(/C=C/C(=O)NCCc2ccc(O)cc2)ccc1O [Compound 4, N-trans-feruloyltyramine] ... Uncompetitive

Every entry's value here was drawn from paper PMC8839375.
